These measurements were taken from PubChem BioAssay AID2060494.

- Test system: 435261-313-R-J1-PDC complex spheroid viability
- TEST_METHOD_NOTES: Anticancer human tumor 435261-313-R-J1-PDC patient-derived colon adenocarcinoma cell line growth inhibition [GQUAD]
- CONDITION_DESCRIPTION: second compound 3.16 µM; first compound 0.000999 µM; stronger effect = lower value
ASSAY_READOUT: viability, T/C (%)

{"MOLECULE": "CC[C@@]1(O)C(=O)OCc2c1cc1n(c2=O)Cc2cc3c(CN(C)C)c(O)ccc3nc2-1 + Cc1[nH]c2ccc(F)cc2c1-c1nc2c3cccnc3c3ncccc3c2[nH]1", "ASSAY_SYSTEM": "435261-313-R-J1-PDC complex spheroid viability", "TEST_VALUE": 41.4}
{"MOLECULE": "CC[C@@]1(O)C(=O)OCc2c1cc1n(c2=O)Cc2cc3c(CN(C)C)c(O)ccc3nc2-1 + Cc1cnc(CNC(=O)c2c(=O)c3ccc(N4CCCN(C)CC4)nc3n3c2sc2ccccc23)cn1", "ASSAY_SYSTEM": "435261-313-R-J1-PDC complex spheroid viability", "TEST_VALUE": 16.9}
{"MOLECULE": "Cc1[nH]c2ccccc2c1CCNCc1ccc(/C=C/C(=O)NO)cc1 + Cc1[nH]c2ccc(F)cc2c1-c1nc2c3cccnc3c3ncccc3c2[nH]1", "ASSAY_SYSTEM": "435261-313-R-J1-PDC complex spheroid viability", "TEST_VALUE": 41.2}

---

- Test system: 435261-313-R-J1-PDC complex spheroid viability
- TEST_METHOD_NOTES: Anticancer human tumor 435261-313-R-J1-PDC cell line growth inhibition [GQUAD];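 further: spheroids exposed to the agents for seven days before readout; percent of vehicle control viability with DMSO wells as 100%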
- CONDITION_DESCRIPTION: second compound 0.0316 µM; first compound 0.0316 µM; stronger effect = lower value
ASSAY_READOUT: viability, T/C (%)

{"COMPOUND": "CCCS(=O)(=O)Nc1ccc(F)c(C(=O)c2c[nH]c3ncc(-c4ccc(Cl)cc4)cc23)c1F + Cc1[nH]c2ccc(F)cc2c1-c1nc2c3cccnc3c3ncccc3c2[nH]1", "UNIT": "%", "TEST_VALUE": 77.2}
{"COMPOUND": "CC(C)n1c(=O)n(C)c2cnc3cc(F)c(-c4ccc(OCCCN5CCCCC5)nc4)cc3c21 + Cc1cnc(CNC(=O)c2c(=O)c3ccc(N4CCCN(C)CC4)nc3n3c2sc2ccccc23)cn1", "UNIT": "%", "TEST_VALUE": 81.5}
{"COMPOUND": "Cn1ncnc1[C@H]1c2n[nH]c(=O)c3cc(F)cc(c23)N[C@@H]1c1ccc(F)cc1 + Cc1cnc(CNC(=O)c2c(=O)c3ccc(N4CCCN(C)CC4)nc3n3c2sc2ccccc23)cn1", "UNIT": "%", "TEST_VALUE": 60.9}
{"COMPOUND": "COc1cc(C2c3cc4c(cc3C(OC3OC5COC(C)OC5C(O)C3O)C3COC(=O)C23)OCO4)cc(OC)c1O (centres undefined) + CN(C)c1ccc(Nc2c3ccc(NC(=O)CCN4CCCC4)cc3nc3cc(NC(=O)CCN4CCCC4)ccc23)cc1", "UNIT": "%", "TEST_VALUE": 93.5}

---

- Test system: 435261-313-R-J1-PDC complex spheroid viability
- TEST_METHOD_NOTES: Anticancer human tumor 435261-313-R-J1-PDC cell line growth inhibition [GQUAD]; active = viability on the fitted dose curve at most 10% of control; inactive = the rest;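 further: spheroids exposed to the agents for seven days before readout; percent of vehicle control viability with DMSO wells as 100%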
- CONDITION_DESCRIPTION: second compound 3.16 µM; first compound 0.1 µM
Outcome codes: active, inactive

{"MOLECULE": "Cc1cccc(N(C)C(=O)C2C(O)CCN2c2nc(C)cc(C(F)(F)F)c2C#N)c1 (centres undefined) + CN(C)c1ccc(Nc2c3ccc(NC(=O)CCN4CCCC4)cc3nc3cc(NC(=O)CCN4CCCC4)ccc23)cc1", "CLASS_LABEL": "inactive"}
{"MOLECULE": "CC(=O)O[C@H]1C(=O)[C@@]2(C)[C@H]([C@H](OC(=O)c3ccccc3)[C@]3(O)C[C@H](OC(=O)[C@H](O)[C@@H](NC(=O)c4ccccc4)c4ccccc4)C(C)=C1C3(C)C)[C@]1(OC(C)=O)CO[C@@H]1C[C@@H]2O + Cc1cnc(CNC(=O)c2c(=O)c3ccc(N4CCCN(C)CC4)nc3n3c2sc2ccccc23)cn1", "CLASS_LABEL": "active"}
{"MOLECULE": "COc1ccc([C@@H](O)c2cc(-c3ncnc4cc(N5CCOCC5)ccc34)c(F)cc2Cl)nn1 + Cc1cnc(CNC(=O)c2c(=O)c3ccc(N4CCCN(C)CC4)nc3n3c2sc2ccccc23)cn1", "CLASS_LABEL": "active"}
{"MOLECULE": "COc1ncnc(C2CC2)c1-c1ncc2cnn(Cc3ccc(-c4nc(C(F)(F)F)cn4C(C)C)cc3)c2n1 + Cc1cnc(CNC(=O)c2c(=O)c3ccc(N4CCCN(C)CC4)nc3n3c2sc2ccccc23)cn1", "CLASS_LABEL": "inactive"}
